Cited source: patent US9365522B2

- study system: ligand binding domain of human ROR gamma (Homo sapiens, UniProt P51449)
- Construct: NM_001001523; expressed in transfected cells; host or cells: HEK293T
- Sequence (P51449 247-497 isoform P51449-2): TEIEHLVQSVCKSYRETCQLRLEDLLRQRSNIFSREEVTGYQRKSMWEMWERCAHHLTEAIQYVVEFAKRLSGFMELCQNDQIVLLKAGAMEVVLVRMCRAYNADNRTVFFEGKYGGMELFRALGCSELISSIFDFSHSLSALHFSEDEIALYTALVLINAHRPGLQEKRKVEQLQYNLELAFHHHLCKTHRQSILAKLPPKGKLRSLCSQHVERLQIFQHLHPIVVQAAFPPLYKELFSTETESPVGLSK
- assay info: ROR gamma reporter gene assay (GAL4-RORγ LBD luciferase, Dual-Glo)
- Assay type: cell-based
- experimental conditions: HEK293T cells transfected with pM-ROR gamma, 8 concentrations 3.5 nM to 10.5 μM, 24 h incubation; read-out: result (pIC50, inhibition of RORγ transcriptional activity) (converted)
endpoint: IC50 (pM)

>>> recorded_measurement("CC1(C)[C@@H]2C[C@H](N(C[C@H](O)c3c(F)cccc3Cl)C(=O)c3cnn([C@H]4CC[C@](C)(C(=O)O)CC4)c3C(F)(F)F)C[C@@H]21")
513000
>>> recorded_measurement("O=C(CN(Cc1cc(F)cc(F)c1)C(=O)c1cnn([C@H]2CC[C@H](C(=O)O)CC2)c1C(F)(F)F)c1c(Cl)cc(C(F)(F)F)cc1Cl")
38000
>>> recorded_measurement("C[C@]1(C(=O)O)CC[C@H](n2ncc(C(=O)N(CC(=O)c3c(Cl)cc(F)cc3Cl)CC3(F)CCCC3)c2C(F)(F)F)CC1")
2690
>>> recorded_measurement("COc1cccc(Cl)c1[C@@H](O)CN(C(=O)c1cnn([C@H]2CC[C@](C)(C(=O)O)CC2)c1Cl)[C@H]1C[C@@H]2[C@H](C1)C2(C)C")
661000
>>> recorded_measurement("COc1cccc(Cl)c1C(=O)CN(C(=O)c1cnn(C23CCC(C(=O)O)(CC2)CC3)c1C(F)(F)F)C1CCC(C)(C)CC1")
55000
>>> recorded_measurement("CC(C)(C)CN(CCc1c[nH]c2cccc(Cl)c12)C(=O)c1cnn([C@H]2CC[C@](C)(C(=O)O)CC2)c1C(F)(F)F")
56200
>>> recorded_measurement("CC1(C)CCC(N(CC(=O)c2c(Cl)cc(F)cc2Cl)C(=O)c2cnn(C34CCC(C(=O)O)(CC3)CC4)c2C(F)F)CC1")
14100
>>> recorded_measurement("CN1CCC(N(CC(=O)c2c(Cl)cc(F)cc2Cl)C(=O)c2cnn([C@H]3CC[C@](C)(C(=O)O)CC3)c2C(F)(F)F)CC1")
"5.62e+06"
>>> recorded_measurement("Cc1cc(Cl)c(C(=O)CN(CC23CCC(C)(CC2)O3)C(=O)c2cnn([C@H]3CC[C@](C)(C(=O)O)CC3)c2C(F)(F)F)c(Cl)c1")
3390
>>> recorded_measurement("Cc1cc(Cl)cc(C)c1C(=O)CN(Cc1cc(F)cc(F)c1)C(=O)c1cnn([C@H]2CC[C@H](C(=O)O)CC2)c1C(F)(F)F")
107000
>>> recorded_measurement("CC1(C)[C@@H]2C[C@H](N(C[C@@H](O)c3sccc3Cl)C(=O)c3cnn([C@H]4CC[C@](C)(C(=O)O)CC4)c3C(F)(F)F)C[C@@H]21")
61700
